Where do these numbers come from? They come from patent US9884063B2.

test.system: UniProt:O95271
assay.notes: Modified TNKS1 Assay 2 (auto-parsylation, [3H]-NAD+ SPA)
Type: biochemical
conditions.used: 6 nM TNKS1, 96 well
Definition: the class of an entry is the range in Low: < 50 nM; Mid: ≥ 50 nM and < 1000 nM; High: ≥ 1000 nM that contains its IC50.

Previously resolved entries follow.
molecule | discrete.label
CC(C)(C)CNC(=O)c1[nH]cnc1C(=O)Nc1ccc(NC(=O)c2ccccc2Cl)cc1 | High
CNC(=O)c1nc[nH]c1C(=O)Nc1ccc(NC(=O)c2c(C)cccc2F)cc1 | High
CNC(=O)c1nc[nH]c1C(=O)Nc1ccc(NC(=O)c2cc(Cl)ccc2Cl)cc1 | Mid

Below: the item to evaluate.
Lab note: sort COCCNC(=O)c1[nH]cnc1C(=O)Nc1ccc(NC(=O)c2ccc(F)cc2Cl)cc1 into the matching IC50 band.
Low

###

test.system: TNKS1 (Homo sapiens, UniProt O95271)
assay.notes: Modified TNKS1 Assay 2 (auto-parsylation, [3H]-NAD+ SPA)
Type: biochemical
conditions.used: 6 nM TNKS1, 96 well
Listing of entries alongside the reported pIC50.
Reminder that pIC50 means the negative base-10 logarithm of the concentration expressed in mol/L.

Consider the reported pIC50 for these molecules:
molecule | readout.value
Cc1cc(NC(=O)c2[nH]cnc2C(=O)NCCN2CCCCC2)ccc1NC(=O)c1ccccc1Cl [Example 89] | 7.52
CC1CCCCN1CCNC(=O)c1[nH]cnc1C(=O)Nc1ccc(NC(=O)c2ccc(F)cc2)cc1 (stereo not shown) [Example 169] | 7.05

Return pIC50 measured with TNKS1 (Homo sapiens, UniProt O95271) given this molecule: CNC(=O)c1nc[nH]c1C(=O)Nc1ccc(NC(=O)c2ccncc2Cl)cc1 [Example 6]
6.82

Query the reported pIC50 for TNKS1 (Homo sapiens, UniProt O95271); item: CNC(=O)c1nc[nH]c1C(=O)Nc1ccc(NC(=O)c2ccc(F)cc2Cl)cc1 [Example 12]
7.70

Form: Entry = O=C(Nc1ccc(NC(=O)c2nc[nH]c2C(=O)NCCN2CCC2)cc1)c1ccc(F)cc1 [Example 199] | System = TNKS1 (Homo sapiens, UniProt O95271) | pIC50 = ____
7.22

Give recorded pIC50 with TNKS1 (Homo sapiens, UniProt O95271) for the following molecule: Cc1cc(NC(=O)c2[nH]cnc2C(=O)NCCN(C)C)ccc1NC(=O)c1ccc(F)cc1Cl [Example 84]
6.77

Query pIC50 on TNKS1 (Homo sapiens, UniProt O95271) for O=C(Nc1ccc(NC(=O)c2ocnc2C(=O)NCCN2CCC(F)(F)CC2)cc1)c1ccc(F)cc1Cl [Example 218]
7.15

Short answer please: pIC50, TNKS1 (Homo sapiens, UniProt O95271), entry O=C(Nc1ccc(NC(=O)c2[nH]cnc2C(=O)NCCN2CCCCC2)cc1)c1ccc(F)cc1I [Example 62]
6.08

Which measured pIC50 belongs to NCCNC(=O)c1[nH]cnc1C(=O)Nc1ccc(NC(=O)c2ccc(F)cc2Cl)cc1 [Example 290] , tested on TNKS1 (Homo sapiens, UniProt O95271)?
7.40

Find pIC50 (TNKS1 (Homo sapiens, UniProt O95271)) for the entry O=C(Nc1ccc(NC(=O)c2[nH]cnc2C(=O)NCCN2CCCCC2)cc1)c1ccc(F)cc1Cl [Example 32]
8.05

Query the reported pIC50 for TNKS1 (Homo sapiens, UniProt O95271); item: CCNC(=O)c1nc[nH]c1C(=O)Nc1ccc(NC(=O)c2ccccc2S(C)(=O)=O)cc1 [Example 257]
5.11

Find pIC50 (TNKS1 (Homo sapiens, UniProt O95271)) for the entry O=C(Nc1ccc(NC(=O)c2nc[nH]c2C(=O)NC2CCOC2)cc1)c1ccc(F)cc1Cl (stereo not shown) [Example 236]
7.52

Could you share what pIC50 was measured for CN1CCCC(CNC(=O)c2[nH]cnc2C(=O)Nc2ccc(NC(=O)c3ccc(F)cc3Cl)cc2)C1 (stereo not shown) [Example 298] , tested on TNKS1 (Homo sapiens, UniProt O95271)?
7.40

Provide value of pIC50 for this record tested with TNKS1 (Homo sapiens, UniProt O95271): CCOc1ccc(C(=O)Nc2ccc(NC(=O)c3[nH]cnc3C(=O)NC)cc2)c(Cl)c1 [Example 250]
6.64

###

This section presents compounds with their documented IC50 values.
test.system: TNKS1 (Homo sapiens)
assay.notes: Modified TNKS1 Assay 2 (auto-parsylation, [3H]-NAD+ SPA)
Assay type: biochemical
conditions.used: 6 nM TNKS1, 96 well
Reply with just the number (in nM).

Some entries whose results are on file:
compound | test.system | unit.tag | readout.value
CNC(=O)c1nc[nH]c1C(=O)Nc1ccc(NC(=O)c2ccccc2Cl)cc1 | TNKS1 (Homo sapiens) | nM | 630
CC1CCN(CCNC(=O)c2[nH]cnc2C(=O)Nc2ccc(NC(=O)c3ccc(F)cc3)cc2)CC1 | TNKS1 (Homo sapiens) | nM | 40
Cc1cc(NC(=O)c2[nH]cnc2C(=O)NCCN2CCCCC2)ccc1NC(=O)c1ccc(F)cc1Cl | TNKS1 (Homo sapiens) | nM | 9
O=C(Nc1ccc(NC(=O)c2[nH]cnc2C(=O)NCCc2ccccn2)cc1)c1ccc(F)cc1Cl | TNKS1 (Homo sapiens) | nM | 100
CNC(=O)c1nc[nH]c1C(=O)Nc1ccc(NC(=O)c2cc(OC)c(OC)cc2Cl)cc1 | TNKS1 (Homo sapiens) | nM | 8

Could you share which IC50 value was measured for CCS(=N)(=O)c1ccc(C(=O)Nc2ccc(NC(=O)c3[nH]cnc3C(=O)NCCN3CCCCC3)cc2)c(Cl)c1 (stereo not shown) ?
9

Item CC(C)(CN1CCCCC1)NC(=O)c1[nH]cnc1C(=O)Nc1ccc(NC(=O)c2ccccc2Cl)cc1 has what recorded IC50?
200

Item CNC(=O)c1nc[nH]c1C(=O)Nc1ccc(NC(=O)c2ncccc2C)cc1 has what recorded IC50?
2000

Looking for the measured IC50 of CNC(=O)c1nc[nH]c1C(=O)Nc1ccc(NC(=O)c2cc(F)c(F)cc2C)cc1 , can you help?
470

Look up IC50 for this compound: O=C(Nc1ccc(NC(=O)c2nc[nH]c2C(=O)NCCN2CCCCC2)cc1)c1ccccc1Cl
20

Which value of IC50 has been reported for CCN(CC)CCCCNC(=O)c1nc[nH]c1C(=O)Nc1ccc(NC(=O)c2ccc(F)cc2Cl)cc1 in the records?
300

# get_value(readout='IC50', item= CNC(=O)c1nc[nH]c1C(=O)Nc1ccc(NC(=O)c2ccc(Cl)cc2F)cc1 )
960

###

test.system: TNKS1 (Homo sapiens, UniProt O95271)
assay.notes: TNKS1 Assay 1 (TNKS1 Histone Ribosylation Assay Kit, biotin-labeled NAD+)
Format: biochemical
conditions.used: chemiluminescent readout, 384 well, first table
endpoint: IC50

Known results for compounds:
compound | test.system | IC50
CNC(=O)c1nc[nH]c1C(=O)Nc1ccc(NC(=O)c2ccc(OCCN(C)C)cc2Cl)cc1 [Example 25] | TNKS1 (Homo sapiens, UniProt O95271) | 70 nM
CNC(=O)c1nc[nH]c1C(=O)Nc1ccc(NC(=O)c2ccc(F)cc2Cl)nc1 [Example 16] | TNKS1 (Homo sapiens, UniProt O95271) | 70 nM
CNC(=O)c1nc[nH]c1C(=O)Nc1ccc(NC(=O)c2ccccc2Cl)cc1 [Example 27] | TNKS1 (Homo sapiens, UniProt O95271) | 100 nM

Now look at this entry.
// IC50 lookup, key: CNC(=O)c1nc[nH]c1C(=O)Nc1ccc(NC(=O)c2cccc(Cl)c2Cl)cc1 [Example 1]
1010 nM

###

Let's look at some compounds and their measured IC50.
test.system: TNKS1 (Homo sapiens)
Sequence (O95271 1-1327): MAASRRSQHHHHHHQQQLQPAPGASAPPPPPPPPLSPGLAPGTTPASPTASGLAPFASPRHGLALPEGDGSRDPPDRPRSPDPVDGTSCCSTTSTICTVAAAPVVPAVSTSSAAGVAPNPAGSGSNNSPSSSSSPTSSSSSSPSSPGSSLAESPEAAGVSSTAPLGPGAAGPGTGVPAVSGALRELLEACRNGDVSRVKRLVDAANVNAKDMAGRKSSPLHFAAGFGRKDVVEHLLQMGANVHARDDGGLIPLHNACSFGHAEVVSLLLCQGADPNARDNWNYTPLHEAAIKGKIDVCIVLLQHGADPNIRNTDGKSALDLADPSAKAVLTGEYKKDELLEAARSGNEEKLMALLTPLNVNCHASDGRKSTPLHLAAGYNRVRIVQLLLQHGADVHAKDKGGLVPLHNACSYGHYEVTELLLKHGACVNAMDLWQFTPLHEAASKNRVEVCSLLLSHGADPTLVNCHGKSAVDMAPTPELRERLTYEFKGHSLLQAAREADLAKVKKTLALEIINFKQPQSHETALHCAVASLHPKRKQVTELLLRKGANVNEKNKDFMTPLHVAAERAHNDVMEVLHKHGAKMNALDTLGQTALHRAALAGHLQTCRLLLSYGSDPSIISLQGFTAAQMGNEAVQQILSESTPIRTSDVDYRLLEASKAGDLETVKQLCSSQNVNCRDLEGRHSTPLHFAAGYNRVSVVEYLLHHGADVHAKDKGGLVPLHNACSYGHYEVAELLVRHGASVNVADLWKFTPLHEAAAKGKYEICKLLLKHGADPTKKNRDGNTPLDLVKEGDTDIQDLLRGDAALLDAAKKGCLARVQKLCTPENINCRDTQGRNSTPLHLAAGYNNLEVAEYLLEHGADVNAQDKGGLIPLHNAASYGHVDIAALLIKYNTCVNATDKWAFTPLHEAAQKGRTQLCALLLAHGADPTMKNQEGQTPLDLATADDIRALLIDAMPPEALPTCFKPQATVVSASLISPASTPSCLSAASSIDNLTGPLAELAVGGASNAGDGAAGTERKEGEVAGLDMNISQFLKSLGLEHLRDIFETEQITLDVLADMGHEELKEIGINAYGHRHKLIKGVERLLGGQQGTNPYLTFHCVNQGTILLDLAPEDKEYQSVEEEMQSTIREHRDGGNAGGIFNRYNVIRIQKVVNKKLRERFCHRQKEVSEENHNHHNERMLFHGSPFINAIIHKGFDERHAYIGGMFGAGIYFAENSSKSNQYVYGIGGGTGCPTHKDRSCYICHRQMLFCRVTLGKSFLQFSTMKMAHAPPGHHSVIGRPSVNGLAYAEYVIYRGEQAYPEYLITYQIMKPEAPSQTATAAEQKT
assay.notes: Modified TNKS1 Assay 3 (BPS kit #80573, biotin-NAD+, 96 well)
Assay type: biochemical
conditions.used: human TNKS1, BPS kit #80573, 96 well
Your answer is read as nM, so omit the unit and give the number.

Some solved entries appear below for comparison.
compound | test.system | IC50, nM
O=C(Nc1ccc(NC(=O)c2ocnc2C(=O)NCCN2CC[C@@H](F)C2)cc1)c1ccc(F)cc1Cl | TNKS1 (Homo sapiens) | 220
CNC(=O)c1nc[nH]c1C(=O)Nc1ccc(NC(=O)c2ccc(S(C)(=O)=O)cc2Cl)cc1 | TNKS1 (Homo sapiens) | 30
CC(C)[C@@H](CO)NC(=O)c1nc[nH]c1C(=O)Nc1ccc(NC(=O)c2ccc(F)cc2Cl)cc1 | TNKS1 (Homo sapiens) | 190

Proceed to the following item.
What does the data say about its IC50? Entry: O=C(Nc1ccc(NC(=O)c2nc[nH]c2C(=O)NCCN2CCCC(F)C2)cc1)c1ccc(F)cc1Cl (stereo not shown)
40
